procedureDetails: Solubility estimation by aliquot addition and Clarity temperature cycling
conditionsUsed: acetonitrile, 20 °C, organic solvent or mixture, thermodynamic from solid
measure: solubility

q: Let me know recorded solubility for CCc1nc2ccc(Cl)cn2c1C(=O)NCc1ccc(N2CCC(c3ccc(OC(F)(F)F)cc3)CC2)cc1 [Q203 free base] , thanks.
a: < 25 mg/mL

* * *

procedureDetails: Approximate solubility of the free base by gravimetry method
Assay type: physicochemical
conditionsUsed: organic solvent or mixture, thermodynamic from solid; EA+4%water, RT
measure: solubility at 1 day (mg/mL)
Give a bare numeral; the unit mg/mL is implied.

q: Let me know recorded solubility at 1 day for CCc1nc2ccc(Cl)cn2c1C(=O)NCc1ccc(N2CCC(c3ccc(OC(F)(F)F)cc3)CC2)cc1 [Q203 free base] , thanks.
a: 16

* * *

procedureDetails: Approximate solubility of the free base by gravimetry method
Type: physicochemical
conditionsUsed: organic solvent or mixture, thermodynamic from solid; Acetone+10%water, 50° C.
measure: solubility at 1 day (mg/mL)
Give a bare numeral; the unit mg/mL is implied.

q: Let me know recorded solubility at 1 day for CCc1nc2ccc(Cl)cn2c1C(=O)NCc1ccc(N2CCC(c3ccc(OC(F)(F)F)cc3)CC2)cc1 [Q203 free base] , thanks.
a: 42

* * *

procedureDetails: Approximate solubility of the free base by gravimetry method
Assay type: physicochemical
conditionsUsed: organic solvent or mixture, thermodynamic from solid; MA+4%water, RT
measure: solubility at 1 day (mg/mL)
Give a bare numeral; the unit mg/mL is implied.

q: Let me know recorded solubility at 1 day for CCc1nc2ccc(Cl)cn2c1C(=O)NCc1ccc(N2CCC(c3ccc(OC(F)(F)F)cc3)CC2)cc1 [Q203 free base] , thanks.
a: 18

* * *

procedureDetails: Approximate solubility of the free base by gravimetry method
Type: physicochemical
conditionsUsed: organic solvent or mixture, thermodynamic from solid; acetone and its mixture with water, 50° C.
measure: solubility at 1 day

q: Let me know recorded solubility at 1 day for CCc1nc2ccc(Cl)cn2c1C(=O)NCc1ccc(N2CCC(c3ccc(OC(F)(F)F)cc3)CC2)cc1 [Q203 free base] , thanks.
a: 41 to 74 mg/mL

* * *

procedureDetails: Approximate solubility of the free base by gravimetry method
Type: physicochemical
conditionsUsed: organic solvent or mixture, thermodynamic from solid; EA and its mixture with water, 50° C.
measure: solubility at 1 day

q: Let me know recorded solubility at 1 day for CCc1nc2ccc(Cl)cn2c1C(=O)NCc1ccc(N2CCC(c3ccc(OC(F)(F)F)cc3)CC2)cc1 [Q203 free base] , thanks.
a: 55 to 98 mg/mL

* * *

procedureDetails: Approximate solubility of the free base by gravimetry method
Assay type: physicochemical
conditionsUsed: organic solvent or mixture, thermodynamic from solid; methyl acetate, 50° C.
measure: solubility at 1 day

q: Let me know recorded solubility at 1 day for CCc1nc2ccc(Cl)cn2c1C(=O)NCc1ccc(N2CCC(c3ccc(OC(F)(F)F)cc3)CC2)cc1 [Q203 free base] , thanks.
a: 94 to 105 mg/mL

* * *

procedureDetails: Approximate solubility of the free base by gravimetry method
Format: physicochemical
conditionsUsed: organic solvent or mixture, thermodynamic from solid; Isopropyl Acetate (IPAC), 50° C.
measure: solubility at 1 day (mg/mL)
Give a bare numeral; the unit mg/mL is implied.

q: Let me know recorded solubility at 1 day for CCc1nc2ccc(Cl)cn2c1C(=O)NCc1ccc(N2CCC(c3ccc(OC(F)(F)F)cc3)CC2)cc1 [Q203 free base] , thanks.
a: 51
